Just for reference, patent US20240270821A1 is where these values come from.

Target Desc: hGIPR (Homo sapiens)
Sequence (P48546 22-466): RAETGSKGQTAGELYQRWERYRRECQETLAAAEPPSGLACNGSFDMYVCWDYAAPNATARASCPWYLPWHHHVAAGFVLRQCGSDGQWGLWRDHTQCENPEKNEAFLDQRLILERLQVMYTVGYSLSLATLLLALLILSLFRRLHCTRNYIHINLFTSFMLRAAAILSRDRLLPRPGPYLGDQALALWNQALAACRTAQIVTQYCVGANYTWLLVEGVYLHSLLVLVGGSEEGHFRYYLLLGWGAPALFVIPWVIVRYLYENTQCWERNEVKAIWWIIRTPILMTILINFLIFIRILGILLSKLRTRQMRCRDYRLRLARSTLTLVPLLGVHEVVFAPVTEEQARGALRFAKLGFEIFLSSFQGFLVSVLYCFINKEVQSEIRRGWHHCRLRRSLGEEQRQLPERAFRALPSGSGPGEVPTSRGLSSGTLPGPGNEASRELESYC
Experiment: Functional cAMP activity in the presence of 1% HSA
Type: cell-based
Measurement Parameters: read-out: cAMP Rel EC50, hGIPR
Starred links: 1 amine or outer side, 2 acyl side, 3 side chain; linkers in the order of their positions; H or OH if unused. Non-standard residues stand in square brackets, D forms with d. Groups on a side chain read outwards from the residue. No end group written: not given here. *: point of attachment. C20 diacid = O=C(O)CCCCCCCCCCCCCCCCCCC(=O)*; C18 diacid = O=C(O)CCCCCCCCCCCCCCCCC(=O)*; γGlu = O=C(O)[C@H](CCC(=O)[*:2])N[*:1]; αMe4Pal = C[C@](N)(Cc1ccncc1)C(=O)O; 4Pal = N[C@@H](Cc1ccncc1)C(=O)O; αMeL = CC(C)C[C@](C)(N)C(=O)O; Dab = NCC[C@H](N)C(=O)O; AEEA = NCCOCCOCC(=O)O; Aib = CC(C)(N)C(=O)O
Reported Metric: EC50
State the value, then name its unit.

Answered cases to consult:
Substance	EC50
Y[Aib]QGTFTSDFSK[αMeL]LDKK([AEEA-γGlu-C20 diacid])AQ[Aib]AFIQWLLEGGPSSGAPPPSEG-NH2 [Example 39]	30.5 nM
H-Y[Aib]QGTFTSD[4Pal]SQ[αMeL]LDKK([γGlu-γGlu-C18 diacid])AQ[αMe4Pal]AFIEYLIE[Aib]GPSSGAPPPSGSGE-NH2 [Example 891]	16 nM

Consider the additional substance presented here.
[ask] EC50 for Y[Aib]QGTFTSDFS[Dab][αMeL]LDKK([AEEA-γGlu-C18 diacid])AQ[Aib]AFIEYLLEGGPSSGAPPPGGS-NH2 [Example 67] ?
[reply] 73.3 nM
